experiment: Safety and pharmacokinetic study of different GTN concentrations compared with sub-lingual Nitrostat; format: in vivo, human; conditions: male, human, in vivo, topical or ocular; pharmacokinetic modelling, topical gel; read-out: Tmax of initial zero order entry into systemic circulation
RESULT_TYPE: Tmax

Data request, read-out Tmax, for O=[N+]([O-])OCC(CO[N+](=O)[O-])O[N+](=O)[O-] [GTN, Glyceryl trinitrate]
10 to 12 min
